Measured viability, T/C, listed per entry.
- Test system: T-47D spheroids with HUVEC/MSC, viability
- ASSAY COMMENT: Anticancer human tumor T-47D cell line growth inhibition [PI3K];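 further: spheroids exposed to agents for seven days before reading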;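 on viability, T/C: percent of DMSO vehicle control luminescence so 100% = untreated growth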
- CONDITION INFO: second compound 3.16 µM; first compound 0.1 µM; stronger effect = lower value
Enter your answer as a number in %; do not include the unit.

Below: 3 molecules and their reported viability, T/C.
* CNC(=O)c1ccc(N2C(=S)N(c3ccc(C#N)c(C(F)(F)F)c3)C(=O)C2(C)C)cc1F + Cc1nc(NC(=O)N2CCCC2C(N)=O)sc1-c1ccnc(C(C)(C)C(F)(F)F)c1 | 76
* CCCS(=O)(=O)Nc1ccc(F)c(C(=O)c2c[nH]c3ncc(-c4ccc(Cl)cc4)cc23)c1F + Cc1nc(NC(=O)N2CCCC2C(N)=O)sc1-c1ccnc(C(C)(C)C(F)(F)F)c1 | 76.9
* CCN1CCN(Cc2ccc(Nc3ncc(F)c(-c4cc(F)c5nc(C)n(C(C)C)c5c4)n3)nc2)CC1 + CC(Nc1ncnc2nc[nH]c12)c1cc2cccc(Cl)c2c(=O)n1-c1ccccc1 | 77.2

IN: Specify measured viability, T/C for CCN1CCN(Cc2ccc(Nc3ncc(F)c(-c4cc(F)c5nc(C)n(C(C)C)c5c4)n3)nc2)CC1 + Cc1nc(NC(=O)N2CCCC2C(N)=O)sc1-c1ccnc(C(C)(C)C(F)(F)F)c1 .
OUT: 39.3

IN: Identify viability, T/C associated with the molecule CC1(C)CCC(CN2CCN(c3ccc(C(=O)NS(=O)(=O)c4ccc(NCC5CCOCC5)c([N+](=O)[O-])c4)c(Oc4cnc5[nH]ccc5c4)c3)CC2)=C(c2ccc(Cl)cc2)C1 + CC(Nc1ncnc2nc[nH]c12)c1cc2cccc(Cl)c2c(=O)n1-c1ccccc1
OUT: 88.9

====

viability, T/C by entry:
- Tested on: T-47D spheroids with HUVEC/MSC, viability
- ASSAY COMMENT: Anticancer human tumor T-47D cell line growth inhibition [PI3K];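 further: spheroids exposed to agents for seven days before reading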;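 on viability, T/C: percent of DMSO vehicle control luminescence so 100% = untreated growth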
- CONDITION INFO: second compound 0.316 µM; first compound 0.1 µM; stronger effect = lower value
// note: answer is a bare numeric in %

Study these solved cases before continuing.
* CC(C)n1nc(-c2ccc3oc(N)nc3c2)c2c(N)ncnc21 + CC(Nc1ncnc2nc[nH]c12)c1cc2cccc(Cl)c2c(=O)n1-c1ccccc1 | 37.3
* Cn1ncc(Cl)c1-c1cc(C(=O)NC(CN)Cc2cccc(F)c2)sc1Cl (stereo unspecified) + COc1c(OCCCN2CCOCC2)ccc2c3n(c(=NC(=O)c4cnc(N)nc4)nc12)CCN3 | 20.4

IN: Name the recorded viability, T/C of the item CC(C)NCC(C(=O)N1CCN(c2ncnc3c2C(C)CC3O)CC1)c1ccc(Cl)cc1 (stereo unspecified) + CC(Nc1ccc2c(c1)OCCn1cc(N3C(=O)OCC3C(F)F)nc1-2)C(N)=O in your answer.
OUT: 64

IN: Determine its reported viability, T/C: Cn1ncc(Cl)c1-c1cc(C(=O)NC(CN)Cc2cccc(F)c2)sc1Cl (stereo unspecified) + CC(Nc1ncnc2nc[nH]c12)c1cc2cccc(Cl)c2c(=O)n1-c1ccccc1
OUT: 89.1

IN: State its viability, T/C: C#Cc1c(F)ccc2cc(O)cc(-c3ncc4c(N5CC6CCC(C5)N6)nc(OCC56CCCN5CC(F)C6)nc4c3F)c12 (stereo unspecified) + CC(Nc1ncnc2nc[nH]c12)c1cc2cccc(Cl)c2c(=O)n1-c1ccccc1
OUT: 80.9

IN: Kindly indicate its recorded viability, T/C. Item: C[C@@H](NC(=O)c1ncnc(N)c1Cl)c1ncc(C(=O)Nc2cc(C(F)(F)F)c(Cl)cn2)s1 + CC(Nc1ccc2c(c1)OCCn1cc(N3C(=O)OCC3C(F)F)nc1-2)C(N)=O
OUT: 79.6

====

- Tested on: T-47D spheroids with HUVEC/MSC, viability
- ASSAY COMMENT: Anticancer human tumor T-47D cell line growth inhibition [PI3K];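 further: spheroids exposed to agents for seven days before reading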;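 on viability, T/C: percent of DMSO vehicle control luminescence so 100% = untreated growth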
- CONDITION INFO: second compound 0.0316 µM; first compound 0.0316 µM; stronger effect = lower value
Measured viability, T/C, listed per entry for reference.
Answer with a number only, understood to be in %.

Examples with their reported viability, T/C follow.
* CCCS(=O)(=O)Nc1ccc(F)c(C(=O)c2c[nH]c3ncc(-c4ccc(Cl)cc4)cc23)c1F + CC(Nc1ccc2c(c1)OCCn1cc(N3C(=O)OCC3C(F)F)nc1-2)C(N)=O | 80.3
* Cn1ncc(Cl)c1-c1cc(C(=O)NC(CN)Cc2cccc(F)c2)sc1Cl (stereo unspecified) + COc1c(OCCCN2CCOCC2)ccc2c3n(c(=NC(=O)c4cnc(N)nc4)nc12)CCN3 | 94.4
* CC(Cn1ccc(-c2ccc(C#N)c(Cl)c2)n1)NC(=O)c1cc(C(C)O)[nH]n1 (stereo unspecified) + CC(Nc1ccc2c(c1)OCCn1cc(N3C(=O)OCC3C(F)F)nc1-2)C(N)=O | 125
* CC(C)n1nc(-c2ccc3oc(N)nc3c2)c2c(N)ncnc21 + CC(Nc1ccc2c(c1)OCCn1cc(N3C(=O)OCC3C(F)F)nc1-2)C(N)=O | 70.5
* CCN1CCN(Cc2ccc(Nc3ncc(F)c(-c4cc(F)c5nc(C)n(C(C)C)c5c4)n3)nc2)CC1 + CC(Nc1ccc2c(c1)OCCn1cc(N3C(=O)OCC3C(F)F)nc1-2)C(N)=O | 81.8

IN: Please list viability, T/C recorded for the compound CCN1CCN(Cc2ccc(Nc3ncc(F)c(-c4cc(F)c5nc(C)n(C(C)C)c5c4)n3)nc2)CC1 + Cc1nc(NC(=O)N2CCCC2C(N)=O)sc1-c1ccnc(C(C)(C)C(F)(F)F)c1
OUT: 89

IN: // fetch viability, T/C given entry CNC(=O)c1ccc(N2C(=S)N(c3ccc(C#N)c(C(F)(F)F)c3)C(=O)C2(C)C)cc1F + CC(Nc1ccc2c(c1)OCCn1cc(N3C(=O)OCC3C(F)F)nc1-2)C(N)=O
OUT: 103

====

Form field: pIC50 (one value per entry).
- System: T-47D spheroids with HUVEC/MSC, viability
- ASSAY COMMENT: Anticancer human tumor T-47D cell line growth inhibition [PI3K];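 further: spheroids exposed to agents for seven days before reading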
- CONDITION INFO: curve of first compound; second compound 0.0316 µM
pIC50: −log10 of the molar value.

Recorded results for 2 compounds are shown here.
- Cn1ncnc1[C@H]1c2n[nH]c(=O)c3cc(F)cc(c23)N[C@@H]1c1ccc(F)cc1 + COc1c(OCCCN2CCOCC2)ccc2c3n(c(=NC(=O)c4cnc(N)nc4)nc12)CCN3: < 7.00
- CC1(C)CCC(CN2CCN(c3ccc(C(=O)NS(=O)(=O)c4ccc(NCC5CCOCC5)c([N+](=O)[O-])c4)c(Oc4cnc5[nH]ccc5c4)c3)CC2)=C(c2ccc(Cl)cc2)C1 + CC(Nc1ccc2c(c1)OCCn1cc(N3C(=O)OCC3C(F)F)nc1-2)C(N)=O: < 5.00

Would you kindly look at the next entry?
IN: Answer with the recorded pIC50 of CC(=O)c1c(C)c2cnc(Nc3ccc(N4CCNCC4)cn3)nc2n(C2CCCC2)c1=O + CC(Nc1ncnc2nc[nH]c12)c1cc2cccc(Cl)c2c(=O)n1-c1ccccc1 only.
OUT: < 7.00

====

Catalogue of molecules with associated viability, T/C
- Test system: T-47D spheroids with HUVEC/MSC, viability
- ASSAY COMMENT: Anticancer human tumor T-47D cell line growth inhibition [PI3K];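 further: spheroids exposed to agents for seven days before reading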;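 on viability, T/C: percent of DMSO vehicle control luminescence so 100% = untreated growth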
- CONDITION INFO: second compound 1 µM; first compound 1 µM; stronger effect = lower value
Unit % implied. Number only.

IN: Using the record for CC(Cn1ccc(-c2ccc(C#N)c(Cl)c2)n1)NC(=O)c1cc(C(C)O)[nH]n1 (stereo unspecified) + Cc1nc(NC(=O)N2CCCC2C(N)=O)sc1-c1ccnc(C(C)(C)C(F)(F)F)c1 , state its measured viability, T/C.
OUT: 87.6

====

- Test system: T-47D spheroids with HUVEC/MSC, viability
- ASSAY COMMENT: Anticancer human tumor T-47D cell line growth inhibition [PI3K];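 further: spheroids exposed to agents for seven days before reading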
- CONDITION INFO: curve of first compound; second compound 10 µM
ENDPOINT NAME: IC50

* CNC(=O)c1ccc(N2C(=S)N(c3ccc(C#N)c(C(F)(F)F)c3)C(=O)C2(C)C)cc1F + CC(Nc1ncnc2nc[nH]c12)c1cc2cccc(Cl)c2c(=O)n1-c1ccccc1 | > 10000 nM
* CC(=O)c1c(C)c2cnc(Nc3ccc(N4CCNCC4)cn3)nc2n(C2CCCC2)c1=O + CC(Nc1ncnc2nc[nH]c12)c1cc2cccc(Cl)c2c(=O)n1-c1ccccc1 | > 100 nM

Now turn to the next compound.
IN: Please look at CC1(C)CCC(Nc2ncc(C(F)(F)F)c(-c3c[nH]c4c(P(C)(C)=O)c(C#N)ccc34)n2)CN1 (stereo not drawn) + Cc1nc(NC(=O)N2CCCC2C(N)=O)sc1-c1ccnc(C(C)(C)C(F)(F)F)c1 and tell me its recorded IC50 on T-47D spheroids with HUVEC/MSC, viability.
OUT: < 31.6 nM

Values from PubChem BioAssay AID1963959
